Biological target: MYST4
Experiment: pooled miR-30 sensor sort-seq; sequence = guide strand; further: reference of the scale not given here
Conditions: shRNA
measured_property: sensor-assay potency score (higher = more potent)

- residue_codes: "TTGAGTCTCGGCACAATCCTGA"
  test_system: "MYST4"
  numeric_result: 0.672
- residue_codes: "TTGGCTTTTAGCACCATCTGGA"
  test_system: "MYST4"
  numeric_result: 0.342
- residue_codes: "TATACAATAACTGAAATGCTAA"
  test_system: "MYST4"
  numeric_result: -0.972
- residue_codes: "TTTTCGATTGTACTTTTGCAGG"
  test_system: "MYST4"
  numeric_result: -1.34

----------
Molecular target: EPGN
Test: pooled miR-30 sensor sort-seq; sequence = guide strand
Conditions: shRNA
Returns the class for an entry based on its sensor-assay potency score (higher = more potent). Class ranges: lower level (below -1), middle level (-1 to below -0.8), upper level (-0.8 or more)

- residue_codes: "AACCACTTAATAGTAATCCAAC"
  label_class: "lower level"
- residue_codes: "TTTCTCTAGCTCATGGTGGAAT"
  label_class: "lower level"
- residue_codes: "TTTCATAAGAATCCACAGCATA"
  label_class: "middle level"
- residue_codes: "TAAGAATCCACAGCATATGAAG"
  label_class: "lower level"
- residue_codes: "TTCTATGTTGTCAGCTTGCTGG"
  label_class: "middle level"
- residue_codes: "TTGGAGGTGTTACAGTCACGGC"
  label_class: "lower level"
- residue_codes: "TGCAGTAACTGTTATGATCTTC"
  label_class: "upper level"
- residue_codes: "TAACCAGTAAAACACCTGCAGA"
  label_class: "lower level"
- residue_codes: "TATGTTGTCAGCTTGCTGGGCT"
  label_class: "upper level"
- residue_codes: "TAATAGTAATCCAACACCAATC"
  label_class: "lower level"
- residue_codes: "TTGAATAAAAGATAGACTGATA"
  label_class: "upper level"

----------
Biological target: ITGA2
Experiment: pooled miR-30 sensor sort-seq; sequence = guide strand
Conditions: shRNA
Reported sensor-assay potency score (higher = more potent) is given for each of the following sequences.
measured_property: sensor-assay potency score (higher = more potent)

- residue_codes: "TAAATCTCCATAGCCATCCAAG"
  test_system: "ITGA2"
  result: -1.12
- residue_codes: "TGAACTGTGATTTCTGTCCTGC"
  test_system: "ITGA2"
  result: 0.82
- residue_codes: "TTGTCGGACATCTAGGACTAGA"
  test_system: "ITGA2"
  result: -0.587
- residue_codes: "TACTTCTGTCCCATCAACCGGC"
  test_system: "ITGA2"
  result: 0.167
- residue_codes: "TAGGTCTGAACTTTGCACTGAA"
  test_system: "ITGA2"
  result: -0.0543
- residue_codes: "TAAACAGGTAGACTCTTCCTTC"
  test_system: "ITGA2"
  result: 0.446
- residue_codes: "TTCTGTTGGAATACTAGCGATT"
  test_system: "ITGA2"
  result: -0.717
- residue_codes: "TAGCACTTCGTCGCCCACCAGA"
  test_system: "ITGA2"
  result: -1.01

----------
Biological target: KIF2C
Test: pooled miR-30 sensor sort-seq; sequence = guide strand
Conditions: shRNA
measured_property: sensor-assay potency score (higher = more potent)

- residue_codes: "TAACACAGACACATATTCTGTG"
  result: 0.393
- residue_codes: "TTCAAAGATTGTCTGTACCAGT"
  result: -0.672
- residue_codes: "TTCTCCAAGTTCACAGTCCTTA"
  result: -0.384
- residue_codes: "TTTCTTGGCCAATTCTTGCTTA"
  result: 0.0812
- residue_codes: "TTCTGTTTCCATTTGAATCAAC"
  result: -0.604
- residue_codes: "TTTGTCTGCTAGCCTGCTCTTC"
  result: -1.15
- residue_codes: "TTGCTCTTCCATCTCCTCGCTG"
  result: -0.535
- residue_codes: "TTGCTGTATGATCTCCTTGAGC"
  result: -1.21
- residue_codes: "TTGGAGTTGACGGATCTCCGTT"
  result: -0.171

----------
Molecular target: SLC2A3
Assay: pooled miR-30 sensor sort-seq; sequence = guide strand
Conditions: shRNA
measured_property: sensor-assay potency score (higher = more potent)

- residue_codes: "TTGTAGGATAGCAGGAAGGATG"
  numeric_result: -1.65
- residue_codes: "TTTGAAGAAGGTAAAAGCCAAG"
  numeric_result: -1.07
- residue_codes: "TTATGATCTTCTCAGGAGCATT"
  numeric_result: -1.71
- residue_codes: "TTCCAGATCTATCTGCACCGTG"
  numeric_result: 0.283
- residue_codes: "TTACACAGTCCCATAAAGCAGC"
  numeric_result: -0.688
- residue_codes: "TAGGATAGCAGGAAGGATGGTA"
  numeric_result: 0.643
- residue_codes: "TTAGCTACTTTACACAGTCCCA"
  numeric_result: -1.12
- residue_codes: "TTCTTTTCTGTTAATGAGCAAA"
  numeric_result: -1.47
- residue_codes: "TTGACGAAGAGTCCGACGGAAA"
  numeric_result: -1.44

----------
Below is a list of entries, each paired with its recorded sensor-assay potency score (higher = more potent) value.
Target: RWDD2B
Assay: pooled miR-30 sensor sort-seq; sequence = guide strand
Conditions: shRNA
measured_property: sensor-assay potency score (higher = more potent)

- residue_codes: "TTCAGTATACAAACATCTCCAT"
  numeric_result: 0.0635
- residue_codes: "TTTTTCGTCAGATACATCCAGG"
  numeric_result: -0.29
- residue_codes: "TCAACTGACTGGACTGTGCTTC"
  numeric_result: 0.407
- residue_codes: "TTTCAGTTCTGCTACAGCCAGC"
  numeric_result: -0.902
- residue_codes: "TTGATAGTAAAGTAGACTTTTG"
  numeric_result: -1.18
- residue_codes: "TCTTCTTTTCAATACAATCTTT"
  numeric_result: -0.675
- residue_codes: "TTCCACACAAACAACACCAGGT"
  numeric_result: 0.95

----------
Molecular target: COPS8
Experiment: pooled miR-30 sensor sort-seq; sequence = guide strand
Details: shRNA
measured_property: sensor-assay potency score (higher = more potent)

- residue_codes: "TTTTTGAAACTAAAGGCGCTTT"
  numeric_result: -0.00727
- residue_codes: "TTGTTGCATCTCTAAGTGCTTC"
  numeric_result: -1.16
- residue_codes: "TTGATGGTTGTATAGATCCCAG"
  numeric_result: -1.45
- residue_codes: "TATTTTATCACATAGTAAGGAA"
  numeric_result: -0.329
- residue_codes: "TTGCAGATTTTATAGCAGGTGG"
  numeric_result: -0.905
- residue_codes: "TATGGAGCAAATATAAAGCTAG"
  numeric_result: -0.121
- residue_codes: "TAGAAGCTGACCATACACTGGG"
  numeric_result: 0.625

----------
Target: IER5
Assay: pooled miR-30 sensor sort-seq; sequence = guide strand
Conditions: shRNA
measured_property: sensor-assay potency score (higher = more potent)

- residue_codes: "TTCCAAGCTTGAACTCTTCTGT"
  test_system: "IER5"
  numeric_result: 0.444
- residue_codes: "TACAAAAATCAATACAACGAAG"
  test_system: "IER5"
  numeric_result: -1.23
- residue_codes: "TTATCGCAGCAGATCTGCCCGG"
  test_system: "IER5"
  numeric_result: -0.618
- residue_codes: "TTATGCAGCTTGATGCCGCCGC"
  test_system: "IER5"
  numeric_result: -0.467
- residue_codes: "TTTCCTAGAGTAATCACAGGAT"
  test_system: "IER5"
  numeric_result: 0.282

----------
Parameter sensor-assay potency score (higher = more potent): see the listing below.
Target: TMEM117
Assay: pooled miR-30 sensor sort-seq; sequence = guide strand
Conditions: shRNA
measured_property: sensor-assay potency score (higher = more potent)

- residue_codes: "TTTGTCTTGATTCTCCATGCGT"
  numeric_result: -0.0154
- residue_codes: "TTAATCGGAGCAACTGACCAAA"
  numeric_result: -0.0675
- residue_codes: "TAGTAGATTCGTTCAACTGTGA"
  numeric_result: 0.105
- residue_codes: "TTGAACATCAGATACATGGGTC"
  numeric_result: 0.48
- residue_codes: "TTAGTGTGATTGGACCTCCATT"
  numeric_result: -1.69

----------
Molecular target: PQLC1
Experiment: pooled miR-30 sensor sort-seq; sequence = guide strand
Conditions: shRNA
Each entry gets n if its sensor-assay potency score (higher = more potent) stays under -0.8, and y if its sensor-assay potency score (higher = more potent) is -0.8 or above.

- residue_codes: "TTGATGCTCATGCCCTCCGTGG"
  label_class: "n"
- residue_codes: "AAGTCCAGGAAGGACCGCCTGG"
  label_class: "n"
- residue_codes: "TTCTTCATCCTTGCTATCTGCA"
  label_class: "y"
- residue_codes: "TGCACGTAGTCCGAGAAGCTGC"
  label_class: "n"

Recorded values, source the OligoGym collection.
